- Tgt: recombinant EphB4 (Homo sapiens, UniProt P54760)
- Construct: amino acids 563-987; Swiss-Prot Acc; No. P54760; purchased ProQinase GmbH 0178-0000-3
- Sequence (P54760 563-987): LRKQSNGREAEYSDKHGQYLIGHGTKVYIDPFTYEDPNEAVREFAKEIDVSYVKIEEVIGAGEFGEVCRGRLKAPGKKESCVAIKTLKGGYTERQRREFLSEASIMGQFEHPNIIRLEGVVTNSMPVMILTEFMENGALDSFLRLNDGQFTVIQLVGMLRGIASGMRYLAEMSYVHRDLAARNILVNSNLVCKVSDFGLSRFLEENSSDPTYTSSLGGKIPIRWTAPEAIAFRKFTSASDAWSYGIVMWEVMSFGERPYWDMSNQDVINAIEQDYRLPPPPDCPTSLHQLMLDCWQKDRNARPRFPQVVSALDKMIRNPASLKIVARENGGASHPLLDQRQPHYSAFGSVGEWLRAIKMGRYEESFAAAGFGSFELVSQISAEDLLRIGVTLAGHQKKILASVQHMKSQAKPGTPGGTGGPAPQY
- Assay Details: In vitro EphB4 enzyme assay (Alphascreen, phosphorylation of biotin-poly-GAT)
- Format: biochemical
- Experimental Conditions: Method of compound preparation: Genesis (aqueous compound preparation); * = tested once only; read-out: EphB4 enzyme assay Mean IC50 value
Reported pIC50 is given for each of the following compounds.
pIC50 (log units): -log10 of the concentration in mol/L.

Clc1ccc2c(c1Nc1ccnc(Nc3cccc(N4CCOCC4)n3)n1)OCO2
6.09
CN(c1ccnc(Nc2cc(N3CCOCC3)nc(N3CCOCC3)c2)n1)c1c(Cl)ccc2c1OCO2
6.22

[in] What value of pIC50 has been reported for the following compound? Clc1ccc2c(c1Nc1ccnc(Nc3cc(N4CCOCC4)nc(N4CCOCC4)c3)n1)OCO2
[out] 6.30

[in] What value of pIC50 has been reported for the following compound? CN(c1ccnc(Nc2cc(Cl)nc(N3CCOCC3)c2)n1)c1cccc2[nH]ncc12
[out] 6.35

[in] What value of pIC50 has been reported for the following compound? CN(c1ccnc(Nc2cc(Cl)cc(N3CCOCC3)n2)n1)c1cccc2[nH]ncc12
[out] 6.01
